Reference for the values: ChEMBL document CHEMBL1122462

molecules and their reported Diet
test system: Rattus norvegicus; test: In vivo Sterol lowering activity at dose as 0.10 % of the diet.; format: functional

- molecule: "CCOC(=O)c1ccc(NC(=O)CCC(=O)OC)cc1"
  Diet: "97%"
- molecule: "N#CCCCNc1ccc(C(=O)O)cc1"
  Diet: "94%"
- molecule: "CCOC(=O)c1ccc(NCCCC#N)cc1"
  Diet: "109%"
- molecule: "CCOC(=O)c1ccc(NC(C)C(=O)OCC)cc1 (centres undefined)"
  Diet: "107%"

* * *

target: Sterol O-acyltransferase 1 (Rattus norvegicus); assay: In vitro inhibitory activity against acyl coenzyme A:cholesterol acyltransferase; design: concentration or dose not given beside the values; conditions: concentration not given here
metric: inhibition

- item-smiles: "O=C(O)c1ccc(NCCCCCCCCCCCNc2ccc(C(=O)O)cc2)cc1"
  result: "< 30%"
- item-smiles: "C[Si](C)(C)CCCCCCCCCCCNc1ccc(C(=O)O)cc1"
  result: "< 56%"
- item-smiles: "CCOC(=O)c1ccc(NCCCCCCCCCCCCCC(C)C)cc1"
  result: "9%"
- item-smiles: "CCCCCCCCCCCCCCCCN(CC(=O)O)c1ccc(C(=O)O)cc1"
  result: "15%"
- item-smiles: "O=C(O)CCCCCNc1ccc(C(=O)O)cc1"
  result: "4%"
- item-smiles: "CCOC(=O)c1ccc(NCCCCCCCCCCCCCCCC(=O)O)cc1"
  result: "4%"
- item-smiles: "CCOC(=O)CCCNc1ccc(C(=O)OCC)cc1"
  result: "11%"
- item-smiles: "CCCCSCCCCCCCCCCC(=O)Nc1ccc(C(=O)OC)cc1"
  result: "< 56%"
- item-smiles: "CCOC(=O)c1ccc(NCCCCCCCCCCCCCCCCSC(C)=O)cc1"
  result: "0%"
- item-smiles: "CCOC(=O)c1ccc(NCCCCCCCCCCCC2CCCCC2)cc1"
  result: "12%"
- item-smiles: "CCOC(=O)c1ccc(NC(=O)CCCCCCCCCCCCC[Si](C)(C)C)cc1"
  result: "< 21%"
- item-smiles: "CCCCOCCCCCCCCCCCNc1ccc(C(=O)O)cc1"
  result: "< 62%"
